Origin of the recorded values: BindingDB's records for doi:10.1016/s0960-894x(03)00020-9

# TEST_SYSTEM: Methionine--tRNA ligase (Escherichia coli) (UniProt P00959)
# Sequence (P00959 whole entry, looked up): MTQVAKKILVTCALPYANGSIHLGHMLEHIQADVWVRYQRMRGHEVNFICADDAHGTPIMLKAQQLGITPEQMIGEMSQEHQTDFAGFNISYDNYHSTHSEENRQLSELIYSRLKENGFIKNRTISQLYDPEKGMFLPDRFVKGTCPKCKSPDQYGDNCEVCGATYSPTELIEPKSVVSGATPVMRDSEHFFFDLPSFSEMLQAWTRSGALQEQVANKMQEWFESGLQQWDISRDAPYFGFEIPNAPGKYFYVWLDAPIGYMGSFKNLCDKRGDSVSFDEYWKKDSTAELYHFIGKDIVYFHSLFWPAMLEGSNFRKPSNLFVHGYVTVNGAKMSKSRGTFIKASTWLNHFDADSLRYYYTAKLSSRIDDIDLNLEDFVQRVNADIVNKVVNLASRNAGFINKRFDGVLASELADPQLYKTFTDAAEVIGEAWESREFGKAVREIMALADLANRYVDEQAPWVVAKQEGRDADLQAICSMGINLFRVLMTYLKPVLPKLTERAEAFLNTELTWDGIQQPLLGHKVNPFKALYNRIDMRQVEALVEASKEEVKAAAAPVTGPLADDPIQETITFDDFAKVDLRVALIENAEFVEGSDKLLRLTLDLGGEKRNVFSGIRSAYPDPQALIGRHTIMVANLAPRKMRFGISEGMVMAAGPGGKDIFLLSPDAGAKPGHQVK
# PROCEDURE_TEXT: Inhibitory activity against Escherichia coli Methionyl-tRNA synthetase was determined
ASSAY_ENDPOINT: IC50 (nM)
Could you give me the number in nM? Just the number is fine.

Query the reported IC50 for Methionine--tRNA ligase (Escherichia coli) (UniProt P00959); item: CSCC[C@H](N)C(=O)NS(=O)(=O)OC[C@H]1O[C@@H](n2cnc3c(N)ncnc32)[C@H](O)[C@@H]1O 7

----------
# TEST_SYSTEM: Isoleucine--tRNA ligase (Escherichia coli) (UniProt P00956)
# Sequence (P00956 whole entry, looked up): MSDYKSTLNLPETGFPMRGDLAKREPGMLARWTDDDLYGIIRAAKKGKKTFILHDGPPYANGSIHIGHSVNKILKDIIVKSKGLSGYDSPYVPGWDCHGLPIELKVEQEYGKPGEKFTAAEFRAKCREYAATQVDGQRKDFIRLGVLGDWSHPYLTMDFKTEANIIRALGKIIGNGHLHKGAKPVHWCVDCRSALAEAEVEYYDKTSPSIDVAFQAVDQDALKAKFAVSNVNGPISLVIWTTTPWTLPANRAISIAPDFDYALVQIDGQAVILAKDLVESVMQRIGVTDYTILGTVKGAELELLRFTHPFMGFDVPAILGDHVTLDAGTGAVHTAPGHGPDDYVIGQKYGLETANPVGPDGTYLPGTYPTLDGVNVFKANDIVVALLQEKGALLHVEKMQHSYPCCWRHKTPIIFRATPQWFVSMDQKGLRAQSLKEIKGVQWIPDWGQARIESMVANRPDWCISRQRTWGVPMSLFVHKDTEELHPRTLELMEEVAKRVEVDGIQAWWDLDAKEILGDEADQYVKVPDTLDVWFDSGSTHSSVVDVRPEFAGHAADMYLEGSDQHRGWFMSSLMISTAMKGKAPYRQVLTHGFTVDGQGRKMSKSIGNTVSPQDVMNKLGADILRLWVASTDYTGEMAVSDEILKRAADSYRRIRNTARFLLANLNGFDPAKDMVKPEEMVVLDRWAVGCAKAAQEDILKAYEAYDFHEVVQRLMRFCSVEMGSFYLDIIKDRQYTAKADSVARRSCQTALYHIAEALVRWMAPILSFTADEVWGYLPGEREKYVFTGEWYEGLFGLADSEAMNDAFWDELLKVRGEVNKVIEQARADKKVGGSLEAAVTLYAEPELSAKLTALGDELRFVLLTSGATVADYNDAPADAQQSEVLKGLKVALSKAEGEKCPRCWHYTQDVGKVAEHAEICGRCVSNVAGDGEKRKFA
# PROCEDURE_TEXT: Inhibitory activity against Escherichia coli Isoleucyl-tRNA synthetase was determined
Documented log10 of IC50 across a set of compounds
Recorded IC50 (log10, µM)

Example entries begin here.
COMPOUND	RECORDED_NUMBER
CC[C@H](C)[C@H](N)C(=O)NS(=O)(=O)OC[C@H]1OC(n2cnc3c(NC)nc(I)nc32)[C@H](O)[C@@H]1O (some centres not stated)	1.35
CCCCC#Cc1nc(N)c2ncn(C3O[C@H](COS(=O)(=O)NC(=O)[C@@H](N)[C@@H](C)CC)[C@@H](O)[C@H]3O)c2n1 (some centres not stated)	0.04
CC[C@H](C)[C@H](N)C(=O)NS(=O)(=O)N(O)C[C@H]1OC(n2cnc3c(N)ncnc32)[C@H](O)[C@@H]1O (some centres not stated)	2.12
CC[C@H](C)[C@H](N)C(=O)NS(=O)(=O)NOC[C@H]1OC(n2cnc3c(N)ncnc32)[C@H](O)[C@@H]1O (some centres not stated)	1.11
CC[C@H](C)[C@H](N)C(=O)NS(=O)(=O)OC[C@H]1OC(n2cnc3c(N)nc(I)nc32)[C@H](O)[C@@H]1O (some centres not stated)	-1.85
CC[C@H](C)[C@H](N)C(=O)NS(=O)(=O)OC[C@H]1OC(n2cnc3c(N)nc(Cl)nc32)[C@H](O)[C@@H]1O (some centres not stated)	0.74

Consider the record given below.
Please give the measured log10 of IC50 for this compound: C#Cc1nc(N)c2ncn(C3O[C@H](COS(=O)(=O)NC(=O)[C@@H](N)[C@@H](C)CC)[C@@H](O)[C@H]3O)c2n1 (some centres not stated) -1.41

----------
Recorded measurements of pIC50, one per entry
# TEST_SYSTEM: Methionine--tRNA ligase (Escherichia coli)
# PROCEDURE_TEXT: Inhibitory activity against Escherichia coli Methionyl-tRNA synthetase was determined
The value called pIC50 is obtained by taking minus log10 of the concentration in mol/L.

MOLECULE	ASSAY_ENDPOINT	RECORDED_NUMBER
CNc1nc(I)nc2c1ncn2C1O[C@H](COS(=O)(=O)NC(=O)[C@@H](N)CCSC)[C@@H](O)[C@H]1O (some centres not stated)	pIC50	3.72
CSCC[C@H](N)C(=O)NS(=O)(=O)OC[C@H]1OC(n2cnc3c(N)nc(Cl)nc32)[C@H](O)[C@@H]1O (some centres not stated)	pIC50	5.13
CSCC[C@H](N)C(=O)NS(=O)(=O)N(O)C[C@H]1OC(n2cnc3c(N)ncnc32)[C@H](O)[C@@H]1O (some centres not stated)	pIC50	3.97
CSCC[C@H](N)C(=O)NS(=O)(=O)NOC[C@H]1OC(n2cnc3c(N)ncnc32)[C@H](O)[C@@H]1O (some centres not stated)	pIC50	4.71
CSCC[C@H](N)C(=O)NS(=O)(=O)OC[C@H]1OC(n2cnc3c(N)nc(I)nc32)[C@H](O)[C@@H]1O (some centres not stated)	pIC50	5.92

What value of pIC50 has been recorded for this entry: C#Cc1nc(N)c2ncn(C3O[C@H](COS(=O)(=O)NC(=O)[C@@H](N)CCSC)[C@@H](O)[C@H]3O)c2n1 (some centres not stated) 5.96

Quick one: pIC50 of CCCCC#Cc1nc(N)c2ncn(C3O[C@H](COS(=O)(=O)NC(=O)[C@@H](N)CCSC)[C@@H](O)[C@H]3O)c2n1 (some centres not stated) ? 5.72
